TEST_SYSTEM: recombinant human PDGF-BB (human, UniProt P01127 82-190)
Sequence (P01127 82-190 limits assumed): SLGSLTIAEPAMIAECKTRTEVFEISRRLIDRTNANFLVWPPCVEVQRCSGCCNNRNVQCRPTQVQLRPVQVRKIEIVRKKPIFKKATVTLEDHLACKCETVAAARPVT
ASSAY_PROTOCOL: cell-based or functional assay
TEST_READOUT: hPDGF-BB IC50 (nM), hPDGF-BB-induced NIH-3T3 cell proliferation

BINDER	TEST_VALUE
hBDI-9E8.7 (antibody, V domains shown) VH: EVTLRESGPALVKPTQTLTLTCTFSGFSLSTYGMGVGWIRQPPGKGLEWLANIWWDDDKYYNPSLKNRLTISKDTSKNQAVLTITNMDPVDTATYYCARIESIGTTYSFDYWGQGTMVTVSS VL: EIVLTQSPGTLSLSPGERATLSCERSSGDIGDSYVSWYQQKPGQAPRLLIYADDQRPSGIPDRFSGSGSGTDFTLTISRLEPEDFAVYYCQSYDINIDIVFGGGTKVEIK	0.35 nM
hBDI-5H1.8 (antibody, V domains shown) VH: EVTLKESGPALVKPTQTLTLTCTFSGFSLSTFGMGVGWIRQPPGKALEWLANIWWDDDKYYNPSLKNRLTISKDTSKNQAVLTITNMDPVDTATYYCARISTGISSYYVMDAWGQGTTVTVSS VL: EFVLTQSPGTLSLSPGERATLSCERSSGDIGDTYVSWYQQKPGQAPRLVIYGNDQRPSGIPDRFSGSGSGTDFTLTISRLEPEDFAVYYCQSYDSDIDIVFGGGTKVEIK	< 10 nM

The values you see were collected from patent US20170015742A1.
